Each recorded value in this set is attributed to patent US20220332795A1.

Please respond with reported RLU for every item in the list.
Biological target: T1, CD71 apical domain (human, UniProt P02786 189-383, limits assumed)
T1 construct: domain: apical domain
T1 sequence (P02786 189-383 limits assumed): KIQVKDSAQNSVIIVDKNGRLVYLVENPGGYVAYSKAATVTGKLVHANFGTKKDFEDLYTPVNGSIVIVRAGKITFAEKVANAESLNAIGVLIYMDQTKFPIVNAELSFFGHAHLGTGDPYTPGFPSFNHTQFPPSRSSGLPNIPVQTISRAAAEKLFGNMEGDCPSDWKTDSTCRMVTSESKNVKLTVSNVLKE
Test: solution ELISA screen (luminescence)
Reply with just the number (in RLU).

Request: What does the data say about its RLU? Entry: SEQ ID NO 230 (designed binder, not shown: small tags and cut ends) MLPAPKNLVVSRVTEDSARLSWTAPDAAFDSFYIAYAEPRPDGEAIWLLVPGSERSYDLTGLKPGTEYSVLIHGVKGGLLSSPLVAFFTT
Result: 6.11e+06

Request: What does the data say about its RLU? Entry: SEQ ID NO 237 (designed binder, not shown: small tags and cut ends) MLPAPKNLVVSRVTEDSARLSWTAPDAAFDSFYIAYAEPRPDGEAIVLAVPGSERSYDLTGLKPGTEYSVLIHGVKGGLLSSPLYASFTT
Result: 7.01e+06

Request: What does the data say about its RLU? Entry: SEQ ID NO 247 (designed binder, not shown: small tags and cut ends) MLPAPKNLVVSRVTEDSARLSWTAPDAAFDSFYIAYAEPRPDGEAILLHVPGSERSYDLTGLKPGTEYSVLIHGVKGGLLSSPLRASFTT
Result: 7.51e+06

Request: What does the data say about its RLU? Entry: SEQ ID NO 236 (designed binder, not shown: small tags and cut ends) MLPAPKNLVVSRVTEDSARLSWTAPDAAFDSFYIAYAEPRPDGEAILLQVPGSERSYDLTGLKPGTEYSVLIHGVKGGLLSSPLDAEFTT
Result: 7.41e+06

Request: What does the data say about its RLU? Entry: SEQ ID NO 216 (designed binder, not shown: small tags and cut ends) MLPAPKNLVVSRVTEDSARLSWTAPDAAFDSFYIAYAEPRPDGEAISLSVPGSERSYDLTGLKPGTEYSVLIHGVKGGLLSSPPKFTT
Result: 142000
